# testName: Wavelength at maximum absorption and molar absorptivity of the cyanine compounds
# Type: physicochemical
# experimentalConditions: methanol
measuredAttribute: wavelength at maximum absorption (λmax) (nm)

Entry COCCN1C(=CC=CC=CC=CC2=[N+](CCOC)c3cc4c(cc3C2(C)C)OCO4)C(C)(C)c2cc3c(cc21)OCO3 [Preparation Example 3] ; wavelength at maximum absorption (λmax) = 793

Entry CCCCN1C(=CC=CC=CC2=[N+](CCCC)c3cc4c(cc3C2(C)C)OCO4)C(C)(C)c2cc3c(cc21)OCO3 [Preparation Example 1] ; wavelength at maximum absorption (λmax) = 696

Entry CCN1C(=CC=CC=CC2=[N+](CC)c3cc4c(cc3C2(C)C)OCO4)C(C)(C)c2cc3c(cc21)OCO3 [Preparation Example 2] ; wavelength at maximum absorption (λmax) = 694

Entry CC1(C)C(=CC=CC=CC=CC2=[N+](CCS(=O)(=O)O)c3cc4c(cc3C2(C)C)OCO4)N(CCS(=O)(=O)O)c2cc3c(cc21)OCO3 [Preparation Example 11] ; wavelength at maximum absorption (λmax) = 790

Entry CCCCN1C(=CC=CC=CC=CC2=[N+](CCCC)c3cc4c(cc3C2(C)C)OC(C)C4)C(C)(C)c2cc3c(cc21)CC(C)O3 (centres unmarked) [Preparation Example 12] ; wavelength at maximum absorption (λmax) = 795
